Test system: UO-31
experimentNotes: NCI tumour cell line growth inhibition, 48 h
The source made the active and inactive calls. No stated cut-off is given here; in the data, active = GI50 up to about 1.1 µM and inactive = higher.
resultType: GI50

Query :: // lookup GI50 | system=UO-31 | key= COC(=O)C1=C(OC(=O)/C(=C/c2ccc(Cl)cc2)c2ccc(Cl)cc2)C(C(=O)OC)[C@@]2(O)[C@@H](C(=O)OC)[C@H](C)C[C@@H]1[C@@H]2C(=O)OC (some centres undefined)
Result :: > 100 µM (inactive)

Query :: Provide the documented GI50 with UO-31 as the system for Cc1ncc(CSC(=N)N)n1Cc1ccccc1
Result :: > 100 µM (inactive)

Query :: Give recorded GI50 with UO-31 for the following compound: CCOC(=N)CC(=O)Nc1cccc(Cl)c1
Result :: > 100 µM (inactive)

Query :: Please provide the recorded GI50 for CC(C)(C)c1cc(C2c3cc4c(cc3OC(O)(CO)C2C(=O)O)OCO4)cc(C(C)(C)C)c1O.CC(C)(C)c1cc(C2c3cc4c(cc3OC3(O)COC(=O)C23)OCO4)cc(C(C)(C)C)c1O (centres undefined) , tested on UO-31.
Result :: 13.6 µM (inactive)

====

System: U-251
experimentNotes: NCI tumour cell line growth inhibition, 48 h
The source made the active and inactive calls. Rule as the data show it: active = GI50 up to about 1.1 µM and inactive = higher.
Return exactly one item of class 1 (active), class 0 (inactive)

Query :: Which outcome was assigned to COc1cc(/C=C/C(=N\NS(=O)(=O)c2ccc(C)cc2)c2sc(NNC(C)=O)nc2C)ccc1O in this test?
Result :: class 0

Query :: Tell me the recorded outcome of this test for O=[N+]([O-])c1ccc2c3c1[C@@H]1O[C@@H]1c1cccc(c1-3)[C@@H]1O[C@H]21 .
Result :: class 0

Query :: What did this assay record as the result for CN(C)CCNc1ccc(C(=O)NCCCN(C)CCCNC(=O)c2ccc(NCCN(C)C)c3c(=O)c4ccccc4[nH]c23)c2[nH]c3ccccc3c(=O)c12 ?
Result :: class 1

Query :: Recorded test call requested for N=C(N)Nc1nc2cc([N+](=O)[O-])ccc2[nH]1
Result :: class 0

====

Tested on: MCF7
experimentNotes: NCI tumour cell line growth inhibition, 48 h
Active and inactive are the calls of the source. Cut-off read from the data, not from the text of the source: active = GI50 up to about 1.1 µM and inactive = higher. Where a SMILES comes first, the peptide text is derived from it.
Pick from y = active, n = inactive when you respond.

Query :: Please share the test call associated with CC1=CC2=C(C=O)C(=O)[C@](C)(O)[C@@H](O)C2=CO1 .
Result :: n

Query :: What did this assay record as the result for Cc1c(C(=O)Nc2ccccc2)nnn1-c1ccnc2cc(C(F)(F)F)ccc12 ?
Result :: n

Query :: For O=C1C=C2SC3C[C@@]24CC1(O)[N+]1=c2c4c(c(O)c4c2=C(C=N4)CC1)N3 , what call appears in the results of this test?
Result :: y

Query :: Returns: the outcome recorded for CC(C)CC(NC(=O)C(Cc1ccccc1)NC(=O)C(Cc1c[nH]c2ccccc12)NC(=O)CNC(=O)C(N)Cc1ccc(O)cc1)C(=O)O (stereo not drawn) (H-YGWFL-OH; configuration not given here) in this assay.
Result :: n

Query :: Lab log entry: COC(=O)C(CCSC)NC(=O)Cc1ccc(C(=O)c2ccccc2)cc1 (stereo not drawn) — outcome as called in the assay?
Result :: n

Query :: Per the assay record, what outcome was assigned to CO/N=C(/C(=O)N(C(=O)/C(=N/OC)c1csc(NC(c2ccccc2)(c2ccccc2)c2ccccc2)n1)n1cnn(CC(=O)OC(C)(C)C)c1=O)c1csc(NC(c2ccccc2)(c2ccccc2)c2ccccc2)n1 ?
Result :: n

Query :: Please state the recorded outcome for this molecule: COc1ccc(/C(=N\Nc2ccccn2)c2ccccn2)cc1
Result :: y

Query :: Tell me the assay call for Cc1ccc(-n2nnc(C(N)=O)c2O)cc1 please.
Result :: n

Query :: Kindly provide the recorded test outcome for the following molecule: CC(NC(=O)C(NC(=O)CNC(=O)OC(C)(C)C)C(C)C)C(=O)Oc1c(Cl)c(Cl)c(Cl)c(Cl)c1Cl (stereo not drawn)
Result :: n

Query :: Could you kindly confirm the outcome this assay logged for CC1=CC(=O)/C(=C/N2C(=O)CNC2=S)C(=O)O1 ?
Result :: n

Query :: Record request — test call for COc1cccc(NC(=O)CC(=O)N2N=C(C)C(/N=N\c3ccc(S(=O)(=O)c4ccc(/N=N/C5C(=O)N(C(=O)CC(=O)Nc6cccc(OC)c6)N=C5C)cc4)cc3)C2=O)c1 (stereo not drawn)
Result :: n

Query :: Assay result, entry COC(=O)c1c(O)ccc2c1c1cc3ccccc3c(O)c1n2Cc1ccccc1Cl — outcome?
Result :: n

Query :: Hi team, can someone confirm the assay call for O=c1c(F)cn(Cc2c(Cl)cccc2Cl)c(=O)n1Cc1c(Cl)cccc1Cl ?
Result :: n

Query :: Record lookup: outcome of this test for CCn1c(=O)ccc2ccc(N(CCO)CCO)nc21 ?
Result :: n

Query :: Hi, do you know how COc1cc2c(cc1OCCCCN1CCN(CCCCOc3cc4c(cc3OC)C(=O)N3CCC[C@H]3C=N4)CC1)N=C[C@@H]1CCCN1C2=O came out in this test?
Result :: y

Query :: Field: outcome | Entry: CCCCCCCCCCCC(=O)NCc1ccc(OC(=O)CCCCCCCCCCC)c(OC)c1
Result :: n

Query :: Look up the recorded call for N#CC1(C#N)C2CCCCC23OC(=N)C1(C#N)C(c1ccccc1)O3 (stereo not drawn) in this test.
Result :: n

Query :: # lookup: test call for NC(C(=O)O)C(N)C(=O)O (stereo not drawn)
Result :: n
